Consider the following binders; for each one, report its pKd.
molecular target: T1, Mouse NRP-1 His (mouse, UniProt P97333 22-856); test: BLI ForteBio, IgG1 N297A on AHQ sensor, 100 nM monomeric antigen, 1:1 fit
T1 construct: Recombinant monomeric protein; also called mNRP-1; not shown: His tag
T1 sequence (P97333 22-856 limits assumed): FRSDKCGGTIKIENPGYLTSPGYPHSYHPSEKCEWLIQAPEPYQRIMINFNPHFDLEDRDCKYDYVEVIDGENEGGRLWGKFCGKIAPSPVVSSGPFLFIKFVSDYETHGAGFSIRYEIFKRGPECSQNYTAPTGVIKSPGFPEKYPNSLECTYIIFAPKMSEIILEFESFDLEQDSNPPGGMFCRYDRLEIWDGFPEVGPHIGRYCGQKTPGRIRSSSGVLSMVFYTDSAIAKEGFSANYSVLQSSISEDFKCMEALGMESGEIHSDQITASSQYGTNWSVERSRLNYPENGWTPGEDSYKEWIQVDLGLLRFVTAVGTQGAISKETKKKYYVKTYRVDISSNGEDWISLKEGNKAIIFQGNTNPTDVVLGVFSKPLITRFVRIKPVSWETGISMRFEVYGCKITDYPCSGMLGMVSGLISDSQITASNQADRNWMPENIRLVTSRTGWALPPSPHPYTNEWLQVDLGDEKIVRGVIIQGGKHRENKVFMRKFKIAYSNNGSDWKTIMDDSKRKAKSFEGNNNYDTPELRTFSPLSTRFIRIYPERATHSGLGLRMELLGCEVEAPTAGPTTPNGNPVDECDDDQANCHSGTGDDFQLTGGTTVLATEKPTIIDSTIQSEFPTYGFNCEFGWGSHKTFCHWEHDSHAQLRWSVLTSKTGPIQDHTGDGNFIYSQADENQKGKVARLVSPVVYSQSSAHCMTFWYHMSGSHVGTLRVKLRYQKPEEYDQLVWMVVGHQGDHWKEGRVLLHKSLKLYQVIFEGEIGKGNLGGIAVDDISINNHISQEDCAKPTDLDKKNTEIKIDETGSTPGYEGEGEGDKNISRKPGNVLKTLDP
Quick note: pKd means taking -log10 of the concentration in moles per liter.

Record MAB11 (antibody, V domains shown) VH: EVQLLESGGGLVQPGGSLRLSCAASGFTFSSVAMVWVRQAPGKGLEWVSAISGSGGATYYADSVEGRFTISRDNSKNTLYLQMSSLRAEDTAVYYCAKDPGYDSSRYYYSNYGMDVWGQGTTVTVSS VL: DIQMTQSPSSLSASVGDRVTITCRASQSISSYLNWYQQKPGKAPKLLIYGASSLQSGVPSRFSGSGSGTDFTLTISSLQPEDFATYYCQQTYSLYTFGGGTKVEIK , field pKd: 9.35

Record MAB7 (antibody, V domains shown) VH: EVQLVESGGGLVQPGGSLRLSCAASGFTFSSYWMEWVRQAPGKGLEWVARIKRDGSEKYYVDSVKGRFTISRDNAKNSLYLQMNSLRAEDTAVYYCARDQGYKTPTDFDLWGRGTLVTVSS VL: DIQMTQSPSSLSASVGDRVTITCQASQDITNYLNWYQQKPGKAPKLLIYDASNLETGVPSRFSGSGSGTDFTFTISSLQPEDIATYYCQQSDVLPITFGGGTKVEIK , field pKd: 7.83
